# System: CAMK2G
# condition info: concentration: 1 μM, replicates: in singlicate; n = 1;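 note: KINOMEscan kinase panel screen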

{"columns": ["compound string", "%Inh [%]"],
 "data": [
  ["Clc1cc(Cl)cc(Nc2ccnc(Nc3cc(Cl)cc(Cl)c3)n2)c1", 8],
  ["COc1ccc(C2=C(Nc3cccc(C(=O)O)c3)C(=O)NC2=O)cc1", 26],
  ["Cc1ccc(C(=O)Nc2ccc(Nc3ccnc4cc(-c5ccccn5)ccc34)cc2O)cc1.Cl", 8],
  ["Cc1ccc(NC(=O)Nc2cccc(Cl)c2)cc1-c1ccc(C(=O)Nc2ccncc2)cc1", 27],
  ["CS(=O)(=O)c1ccc(-c2c(-c3ncn[nH]3)sc(N3CCOCC3)c2C#N)cc1", 11],
  ["CS(=O)(=O)c1ccc(-c2nc3n(c2-c2ccncc2)CCC3)cc1", 6],
  ["Nc1nc(-c2nccs2)c(-c2ccnc3ccccc23)s1", 13],
  ["CC(C)(C)c1ccc(C(=O)Nc2cn3cc(Cl)ccc3n2)cc1", 11],
  ["COc1ccccc1-c1ccc2c(NC(=O)C3CC3)n[nH]c2n1", 9]
]}

---

# System: JAK2(JH1domain-catalytic)
# condition info: concentration: 1 μM, replicates: in singlicate; n = 1
Listed here: items and their measured %Inh.

{"columns": ["compound", "unit descriptor", "%Inh"],
 "data": [
  ["COc1ccc(C2=C(Nc3cccc(C(=O)O)c3)C(=O)NC2=O)cc1", "%", 12],
  ["Fc1cccc(COc2nnc(-c3ccc4c(c3)CCO4)o2)c1", "%", 0],
  ["Cc1cccc(-c2nc(-c3ccc(S(C)(=O)=O)cc3)sc2-c2ccnc(NCCc3ccccc3)c2)c1", "%", 8],
  ["COc1cc(Nc2nccc(N3CCC(NC(=O)Nc4cc(C)ccc4C)C3)n2)cc(OC)c1OC (stereo not shown)", "%", 76],
  ["Cl.c1ccc(-c2n[nH]cc2-c2ccnc(-c3ccc(CN4CCOCC4)cc3)c2)nc1", "%", 0],
  ["COc1cccc(-c2cc(-c3c[nH]nc3-c3ccccn3)ccn2)c1", "%", 0],
  ["NC(=O)c1nnc2ccccc2c1N", "%", 58]
]}

---

Listed here: items and their measured %Inh.
# Tested on: TESK1
# condition info: concentration: 1 μM, replicates: in singlicate; n = 1

{"columns": ["molecule", "%Inh [%]"],
 "data": [
  ["COc1ccc(CNC(=O)NC2CCN(c3ccnc(Nc4cc(OC)c(OC)c(OC)c4)n3)C2)cc1 (stereo not shown)", 2],
  ["COc1cc2ncnc(Nc3ccc4nc(-c5ccccc5)[nH]c4c3)c2cc1OC.Cl", 20],
  ["Clc1cc(Cl)cc(Nc2ccnc(Nc3cc(Cl)cc(Cl)c3)n2)c1", 20],
  ["O=C(Nc1n[nH]c2cc(-c3cccc(F)c3F)ccc12)C1CC1", 8],
  ["Cl.NC(=O)c1cccc(Nc2nccc(Nc3ccc(Oc4cccc(Cl)c4)c(Cl)c3)n2)c1", 40],
  ["O=C(Nc1ccccc1)Nc1cccc(Oc2ccc3nccn3n2)c1", 0],
  ["Fc1cc(Cl)ccc1Nc1ccnc2cc(-c3ccc(CN4CCCCC4)o3)ccc12", 19],
  ["Cc1ccc(NC(=O)Nc2cc(C(C)(C)C)nn2-c2ccccc2)cc1", 13],
  ["Cc1cc(-c2ccc3c(c2)CC[C@@H](N[C@@H](C)c2ccccc2)C3)cnc1N.Cl", 11],
  ["Cc1cccc(-c2nc(Nc3cccc(C(N)=O)c3)c3ccccc3n2)n1", 0],
  ["COC(=O)c1c(-c2ccccc2)c2cc(C(=O)O)ccc2c(=O)n1Cc1ccccc1", 0],
  ["O=C(Nc1n[nH]c2nc(-c3nccs3)c(Br)cc12)C1CC1", 36],
  ["COc1cccc(-c2cc(-c3c[nH]nc3-c3ccccn3)ccn2)c1", 15],
  ["Fc1cccc(COc2nnc(-c3ccc4c(c3)CCO4)o2)c1", 0],
  ["CC(C)(C)c1ccc(C(=O)Nc2cn3cc(Cl)ccc3n2)cc1", 0],
  ["Cl.O=C(Nc1cccc(-c2nn3ncccc3c2-c2ccnc(Nc3cccnc3)n2)c1)c1c(F)cccc1F", 0],
  ["COc1cc2nccc(Nc3ccc(NC(=O)c4ccc(C)cc4)c(O)c3)c2cc1OC.Cl", 25],
  ["O=C(Nc1ccc2c(c1)OCO2)NC1CCN(c2ccnc(Nc3ccc(F)cc3)n2)C1 (stereo not shown)", 32],
  ["CCn1c(-c2ccccn2)nc2cnccc21", 0],
  ["CCn1c(-c2cccnc2O)nc2cnccc21", 0],
  ["CCCc1ccc(S(=O)(=O)NC2CCN(c3ccnc(Nc4ccc(F)cc4)n3)C2)cc1 (stereo not shown)", 74],
  ["Cc1ccc(-c2cc(-c3c[nH]nc3-c3ccccn3)ccn2)cc1", 0],
  ["Cc1c(O)cccc1Nc1ccnc2ccc(C(F)(F)F)cc12.Cl", 10],
  ["Cc1cc(N2Cc3ccccc3C2)nc(Nc2ccc(S(=O)(=O)N3CCOCC3)cc2)n1.Cl", 12],
  ["Cc1ccccc1-n1cnc2c(N)ncnc21", 3]
]}
